Origin of values: PubChem BioAssay (NCI)

- assay remarks: NCI Yeast Anticancer Drug Screen. Data for the mlh1 rad18 strain (AID 175)
- conditions: S. cerevisiae mlh1 rad18 strain growth inhibition; at 5.0 µM (retest, dose inferred, filed as 0.5); active compounds read high
The panel holds about 79,000 compounds, 15% with a hit somewhere; the sample as a whole holds those more often. The source made the active and inactive calls. Rule as the data show it: active = growth inhibition above about 70%; inactive = the rest.
parameter measured: growth inhibition

molecule: CC(=O)OCC1OC(c2cccc3c2c2ccccc2n3S(=O)(=O)c2ccccc2)C(O)C1O (configuration not stated)
growth inhibition: 1% (inactive)
//
molecule: c1ccc(N=Nc2n[nH]c3ccccc23)cc1
growth inhibition: -119% (inactive)
//
molecule: O=[N+]([O-])c1cc(Cc2cc([N+](=O)[O-])c3cccnc3c2O)c(O)c2ncccc12
growth inhibition: 90% (active)
//
molecule: Oc1ccc(-c2nnc(-c3ccc(Cl)cc3Cl)o2)cc1
growth inhibition: -2% (inactive)
//
molecule: CCOC(=O)C(=Cc1ccc(OC)cc1)C(=O)OCC
growth inhibition: -1% (inactive)

Indicate the recorded growth inhibition value for this molecule: Cc1cc2nc3n(c2cc1C)C(c1c(F)cccc1F)SC3 (configuration not stated) 26% (inactive)

Indicate the recorded growth inhibition value for this molecule: CC1(c2ccccc2)OC(=O)C=CC1=O (configuration not stated) 27% (inactive)

Indicate the recorded growth inhibition value for this molecule: CC(O)c1c2ccccc2cc2ccccc12 (configuration not stated) -13% (inactive)

Indicate the recorded growth inhibition value for this molecule: C#CC(O)c1ccc(Cl)cc1Cl (configuration not stated) 6% (inactive)

Indicate the recorded growth inhibition value for this molecule: CCN(CC)CC(O)c1ccnc2c(O)cccc12 (configuration not stated) 1% (inactive)

Indicate the recorded growth inhibition value for this molecule: `COc1ccc(NC(=O)Nc2ccc(Cl)cc2)nn1` -7% (inactive)

Indicate the recorded growth inhibition value for this molecule: `CCCCCCCCCCCC[n+]1ccc(C#N)cc1` 16% (inactive)
